# SYSTEM TESTED: Tn5 transposase E54K,L372P (hyperactive) (bacterial transposon Tn5 (expressed in …, UniProt Q46731 1-476, E54K;L372P))
# METHOD NOTES: ITC; ITC: 50 mM Tris pH 7.5, 800 mM NaCl, 0.1 mM EDTA, 5% glycerol, 25 C; 100 uM DNA titrated into 4 uM protein
# RECORDED CONDITIONS: protein: recombinant; tags: His6-Sumo3 removed by SenP2; one extra N-terminal Ser remains; chain copies: 2; 19 bp duplex with 5' overhang (14 nt for ME-A, 15 nt for ME-B)
EXPERIMENTAL ENDPOINT: Kd (nM)

>>> numeric_result("annealed Tn5 linker oligonucleotide (mosaic end); Tn5ME-A/Tn5MErev or Tn5ME-B/Tn5MErev, not stated which (dsDNA, 5' phosphate on Tn5MErev) DNA 1: TCGTCGGCAGCGTCAGATGTGTATAAGAGACAG DNA 2: CTGTCTCTTATACACATCT")
500
